# Target entity: Interstitial collagenase (Homo sapiens)
# Sequence (P03956 whole entry): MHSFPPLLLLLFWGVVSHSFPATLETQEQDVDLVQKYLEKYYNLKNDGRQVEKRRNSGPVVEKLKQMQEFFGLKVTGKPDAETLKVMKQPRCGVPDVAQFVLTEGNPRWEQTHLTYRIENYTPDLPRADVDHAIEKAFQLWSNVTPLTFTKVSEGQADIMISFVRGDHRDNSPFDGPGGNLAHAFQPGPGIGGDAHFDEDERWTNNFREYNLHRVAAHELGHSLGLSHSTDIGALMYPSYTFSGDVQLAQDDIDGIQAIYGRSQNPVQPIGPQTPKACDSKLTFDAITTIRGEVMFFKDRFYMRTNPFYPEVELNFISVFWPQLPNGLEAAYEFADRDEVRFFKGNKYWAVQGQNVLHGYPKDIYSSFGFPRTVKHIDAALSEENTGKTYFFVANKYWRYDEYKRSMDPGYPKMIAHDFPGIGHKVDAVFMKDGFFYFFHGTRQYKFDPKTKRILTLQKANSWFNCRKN
# Assay summary: In vitro inhibition of matrix metalloprotease-1
Field 'label' (enum: class 1 / class 0). Set to class 1 when IC50 is strictly under 300 nM; else class 0.

compound="COc1ccc(S(=O)(=O)[C@](C)(Cc2ccc(OCCN3CCCCC3)cc2)C(=O)NO)cc1 (stereo in doubt; form 2)" label_class="class 1"
compound="CC(Cc1ccc(OCCN2CCCCC2)cc1)(C(=O)NO)S(=O)(=O)c1cccs1 (stereo not given)" label_class="class 1"
compound="CCN(CC)COc1ccc(CC(C)(C(=O)NO)S(=O)(=O)c2ccc(-c3ccco3)cc2)cc1 (stereo not given)" label_class="class 1"
compound="COc1ccc(S(=O)(=O)C(C)(Cc2ccc(OCCN3CCOCC3)cc2)C(=O)NO)cc1 (stereo not given)" label_class="class 0"
compound="COc1ccc(S(=O)(=O)C(Cc2cccnc2)(CC(C)C)C(=O)NO)cc1 (stereo not given)" label_class="class 0"
compound="CCCCCCCCS(=O)(=O)C(C)(Cc1ccc(OCCN2CCCCC2)cc1)C(=O)NO (stereo not given)" label_class="class 1"
compound="CC(Cc1ccccc1)(C(=O)NO)S(=O)(=O)c1cccs1 (stereo not given)" label_class="class 1"
compound="COc1ccc(S(=O)(=O)[C@](C)(Cc2ccc(OCCN3CCCCC3)cc2)C(=O)NO)cc1 (stereo in doubt; form 1)" label_class="class 0"
compound="COc1ccc(CS(=O)(=O)C(C)(Cc2ccccc2)C(=O)NO)cc1 (stereo not given)" label_class="class 1"

###

# Target entity: Matrix metalloproteinase-9 (Homo sapiens, UniProt P14780)
# Sequence (P14780 whole entry): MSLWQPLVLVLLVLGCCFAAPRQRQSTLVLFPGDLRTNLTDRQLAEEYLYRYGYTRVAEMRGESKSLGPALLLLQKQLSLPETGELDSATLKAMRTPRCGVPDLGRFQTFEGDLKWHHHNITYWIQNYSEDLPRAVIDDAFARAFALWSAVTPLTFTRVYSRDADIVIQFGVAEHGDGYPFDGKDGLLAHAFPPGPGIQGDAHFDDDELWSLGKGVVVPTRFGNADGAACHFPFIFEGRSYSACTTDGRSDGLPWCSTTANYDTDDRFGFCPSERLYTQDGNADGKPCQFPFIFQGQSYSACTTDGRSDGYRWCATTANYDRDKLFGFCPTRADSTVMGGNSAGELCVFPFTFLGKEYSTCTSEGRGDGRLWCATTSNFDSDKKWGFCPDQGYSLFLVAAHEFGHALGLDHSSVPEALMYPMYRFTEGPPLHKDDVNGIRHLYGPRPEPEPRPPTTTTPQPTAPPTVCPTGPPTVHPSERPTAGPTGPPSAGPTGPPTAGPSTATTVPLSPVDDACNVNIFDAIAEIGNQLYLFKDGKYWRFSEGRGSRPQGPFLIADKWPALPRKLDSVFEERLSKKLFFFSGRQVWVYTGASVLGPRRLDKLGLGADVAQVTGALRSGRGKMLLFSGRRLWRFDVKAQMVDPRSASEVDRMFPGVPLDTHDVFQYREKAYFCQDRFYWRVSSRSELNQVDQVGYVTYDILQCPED
# Assay summary: In vitro inhibition of matrix metalloprotease-9
pIC50: −log10 of the molar value.
pIC50 values by entry
Measurement label: pIC50

compound="COc1ccc(S(=O)(=O)[C@](C)(Cc2ccc(OCCN3CCCCC3)cc2)C(=O)NO)cc1 (stereo in doubt; form 1)" assay_result=6.95
compound="COc1ccc(S(=O)(=O)[C@](C)(Cc2ccc(OCCN3CCCCC3)cc2)C(=O)NO)cc1 (stereo in doubt; form 2)" assay_result=8.30
compound="COc1ccc(S(=O)(=O)C(C)(Cc2ccc(OCCCN3CCN(c4cccc(Cl)c4)CC3)cc2)C(=O)NO)cc1 (stereo not drawn)" assay_result=8.15

###

# Target entity: Collagenase 3 (Homo sapiens, UniProt P45452)
# Assay summary: Inhibition of Matrix metalloprotease-13
Measurement label: IC50 (nM)

molecule="CCOc1ccc(S(=O)(=O)C(C)(Cc2ccc(OCCN(CC)CC)cc2)C(=O)NO)cc1 (stereo unspecified)" target_entity="Collagenase 3 (Homo sapiens, UniProt P45452)" u=nM assay_result=16

###

# Target entity: Disintegrin and metalloproteinase domain-containing protein 17 (Homo sapiens)
# Sequence (P78536 whole entry, the tested form may be a part): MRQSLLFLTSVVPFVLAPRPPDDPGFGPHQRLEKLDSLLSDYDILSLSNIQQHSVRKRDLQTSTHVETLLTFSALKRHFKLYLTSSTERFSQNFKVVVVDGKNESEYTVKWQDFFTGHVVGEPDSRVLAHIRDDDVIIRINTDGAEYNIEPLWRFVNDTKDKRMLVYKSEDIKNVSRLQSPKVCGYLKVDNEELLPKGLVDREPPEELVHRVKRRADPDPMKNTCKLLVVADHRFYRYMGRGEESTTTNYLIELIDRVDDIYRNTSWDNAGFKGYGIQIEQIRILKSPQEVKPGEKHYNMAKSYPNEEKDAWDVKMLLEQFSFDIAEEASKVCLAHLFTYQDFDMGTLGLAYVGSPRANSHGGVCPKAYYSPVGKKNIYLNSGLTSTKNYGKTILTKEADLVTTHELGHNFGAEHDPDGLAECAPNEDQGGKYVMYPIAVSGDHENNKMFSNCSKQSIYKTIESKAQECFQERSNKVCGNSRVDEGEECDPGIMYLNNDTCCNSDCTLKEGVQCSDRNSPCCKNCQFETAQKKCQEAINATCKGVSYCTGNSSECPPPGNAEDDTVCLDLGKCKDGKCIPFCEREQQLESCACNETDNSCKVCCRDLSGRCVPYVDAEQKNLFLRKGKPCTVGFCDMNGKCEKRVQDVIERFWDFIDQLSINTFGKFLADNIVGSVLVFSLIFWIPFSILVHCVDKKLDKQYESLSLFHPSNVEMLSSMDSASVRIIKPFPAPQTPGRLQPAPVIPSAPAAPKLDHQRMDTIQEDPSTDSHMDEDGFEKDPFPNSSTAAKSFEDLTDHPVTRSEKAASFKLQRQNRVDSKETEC
# Assay summary: In vitro inhibition against tumor necrosis factor alpha converting enzyme at 10 uM concentration
inhibition values by entry
Measurement label: inhibition (%)

compound="CCCCC(C(=O)NO)S(=O)(=O)c1ccc(OC)cc1 (centres undefined)" measurement_label=inhibition u=% assay_result=54
compound="CCCCOc1ccc(S(=O)(=O)C(C)(Cc2ccc(OCCN3CCCCC3)cc2)C(=O)NO)cc1 (centres undefined)" measurement_label=inhibition u=% assay_result=30
compound="COc1ccc(S(=O)(=O)C(C)(C/C=C/c2ccccc2)C(=O)NO)cc1 (centres undefined)" measurement_label=inhibition u=% assay_result=65
compound="COc1ccc(S(=O)(=O)C(C)(Cc2ccccc2)C(=O)NO)cc1 (centres undefined)" measurement_label=inhibition u=% assay_result=15
